Give measured hERG current change (%, negative = inhibition) at 10uM for each item. Keep answers brief.
# Target desc: human ether-à-go-go-related gene (hERG) potassium channel (human, UniProt Q12809);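 also: peak tail current of the secondary pulse compared with the same well before compound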
# Sequence (Q12809 whole entry, looked up): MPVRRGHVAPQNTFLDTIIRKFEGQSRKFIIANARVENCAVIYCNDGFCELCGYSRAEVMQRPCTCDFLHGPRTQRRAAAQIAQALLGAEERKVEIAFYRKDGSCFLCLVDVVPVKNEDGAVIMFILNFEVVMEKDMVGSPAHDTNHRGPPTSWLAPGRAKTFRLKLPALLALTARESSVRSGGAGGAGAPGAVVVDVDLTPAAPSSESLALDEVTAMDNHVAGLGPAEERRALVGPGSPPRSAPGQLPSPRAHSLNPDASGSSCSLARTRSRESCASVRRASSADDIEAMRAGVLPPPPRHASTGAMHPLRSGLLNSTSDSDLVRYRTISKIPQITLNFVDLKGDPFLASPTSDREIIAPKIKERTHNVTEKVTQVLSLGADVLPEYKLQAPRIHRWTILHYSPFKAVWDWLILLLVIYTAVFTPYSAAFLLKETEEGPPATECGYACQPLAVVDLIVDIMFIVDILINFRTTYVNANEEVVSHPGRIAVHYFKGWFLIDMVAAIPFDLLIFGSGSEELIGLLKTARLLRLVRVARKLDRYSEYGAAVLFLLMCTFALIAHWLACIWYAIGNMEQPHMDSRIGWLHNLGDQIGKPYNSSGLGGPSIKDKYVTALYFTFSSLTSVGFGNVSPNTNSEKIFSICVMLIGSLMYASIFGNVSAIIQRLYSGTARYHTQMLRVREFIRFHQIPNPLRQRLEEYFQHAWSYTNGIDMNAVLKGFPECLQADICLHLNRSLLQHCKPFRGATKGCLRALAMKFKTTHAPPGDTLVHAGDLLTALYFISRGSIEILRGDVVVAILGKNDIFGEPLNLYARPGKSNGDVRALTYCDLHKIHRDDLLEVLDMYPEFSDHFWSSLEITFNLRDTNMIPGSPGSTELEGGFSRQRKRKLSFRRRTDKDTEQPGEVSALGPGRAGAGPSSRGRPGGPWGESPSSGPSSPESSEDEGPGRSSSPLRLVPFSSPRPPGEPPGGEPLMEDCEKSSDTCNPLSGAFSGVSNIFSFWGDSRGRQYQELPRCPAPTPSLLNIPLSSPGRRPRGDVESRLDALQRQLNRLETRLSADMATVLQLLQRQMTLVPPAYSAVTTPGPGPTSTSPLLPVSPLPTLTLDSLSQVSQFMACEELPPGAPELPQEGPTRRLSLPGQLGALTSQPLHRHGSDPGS
# Measurement notes: primary screen, population patch clamp on CHO cells stably expressing hERG; higher = less effect of the substance
The campaign covered roughly 310,000 compounds. About 14,000 (4.5%) showed an effect of 50% or more. The effect is printed as a negative number. The full list was thinned out, with strong results kept by preference.
Field: numeric (%). Do not append units.

Would you kindly share the measured hERG current change (%, negative = inhibition) at 10uM for "Fc1ccc(CNCCc2ccccc2)cc1.O=C(O)C(=O)O" ? -18.2

Would you kindly share the measured hERG current change (%, negative = inhibition) at 10uM for "CN(C)C1(CNC(=O)C2CCN(S(=O)(=O)c3c(Cl)cccc3Cl)CC2)CCCCC1" ? -67.5

Would you kindly share the measured hERG current change (%, negative = inhibition) at 10uM for "O=C(O)c1ccccc1C(=O)Nc1ccc(-n2nc(C(F)(F)F)cc2C(F)(F)F)cc1" ? 12.8

Would you kindly share the measured hERG current change (%, negative = inhibition) at 10uM for CC1=C(C(=O)OCCBr)C(c2cccc3ccccc23)NC(=O)N1 (stereo not shown) ? 17.5

Would you kindly share the measured hERG current change (%, negative = inhibition) at 10uM for "O=C(CNC(=S)N(CCCN1CCOCC1)Cc1cccs1)N1CCOCC1" ? -9.74

Would you kindly share the measured hERG current change (%, negative = inhibition) at 10uM for "CCCC(=O)NNC(=O)Nc1ccccc1" ? 19.8

Would you kindly share the measured hERG current change (%, negative = inhibition) at 10uM for "Fc1ccccc1CCNCc1ccccc1" ? 5.42

Would you kindly share the measured hERG current change (%, negative = inhibition) at 10uM for "CCOC(=O)CNC(=S)N(CCCN1CCN(C)CC1)Cc1cccs1" ? -43.5

Would you kindly share the measured hERG current change (%, negative = inhibition) at 10uM for "Cl.c1coc(CNc2nc(N3CCCCC3)nc3ccccc23)c1" ? -77.5

Would you kindly share the measured hERG current change (%, negative = inhibition) at 10uM for "CCc1ccc(CNCc2ccc(F)cc2)cc1" ? -21

Would you kindly share the measured hERG current change (%, negative = inhibition) at 10uM for "Fc1ccc(CNCCc2ccccc2F)cc1" ? -2.59

Would you kindly share the measured hERG current change (%, negative = inhibition) at 10uM for "Cc1ccc(S(=O)(=O)N2CCC(C(=O)Nc3ccc(C(C)C)cc3)CC2)cc1" ? -11.5

Would you kindly share the measured hERG current change (%, negative = inhibition) at 10uM for "CN(C)C1(CNC(=O)C2CCN(S(=O)(=O)c3ccccc3C(F)(F)F)CC2)CCCCC1" ? -29.8

Would you kindly share the measured hERG current change (%, negative = inhibition) at 10uM for O=C(NCC1CCCO1)C1CCN(S(=O)(=O)c2cc(Cl)ccc2Cl)CC1 (stereo not shown) ? -19

Would you kindly share the measured hERG current change (%, negative = inhibition) at 10uM for "C/C(CC(=O)N1CCCC1)=N\NC(=O)c1cc2ccccc2cc1O" ? 4.98

Would you kindly share the measured hERG current change (%, negative = inhibition) at 10uM for "CN(C)C1(CNC(=O)C2CCN(S(=O)(=O)c3cccc(C(F)(F)F)c3)CC2)CCCCC1" ? -34.6

Would you kindly share the measured hERG current change (%, negative = inhibition) at 10uM for "CCN(CC)CCNC(=O)CNC(=S)N(CCCN1CCOCC1)Cc1cccs1" ? 15.7

Would you kindly share the measured hERG current change (%, negative = inhibition) at 10uM for "CC(C)c1ccc(S(=O)(=O)N2CCC(C(=O)NCC3(N(C)C)CCCCC3)CC2)cc1" ? -54.4

Would you kindly share the measured hERG current change (%, negative = inhibition) at 10uM for "CCc1ccc(CNCCc2ccccc2F)cc1" ? -67.7

Would you kindly share the measured hERG current change (%, negative = inhibition) at 10uM for "Cc1ccc(CNCCc2ccccc2F)cc1.Cl" ? -31.8

Would you kindly share the measured hERG current change (%, negative = inhibition) at 10uM for CCOC(=O)C1=C(C)Nc2ncnn2C1/C=C/c1ccccc1 (stereo not shown) ? -2.68

Would you kindly share the measured hERG current change (%, negative = inhibition) at 10uM for "O=C(Nc1cccc2cccnc12)c1ccc(Br)cc1Br" ? 21.6

Would you kindly share the measured hERG current change (%, negative = inhibition) at 10uM for "COc1cccc(NC(=O)c2nn(C)c3c2CS(=O)(=O)c2ccccc2-3)c1" ? 8.68

Would you kindly share the measured hERG current change (%, negative = inhibition) at 10uM for CCC(C)(C(=O)NC1CCCCC1)N(CC1CCCO1)C(=O)c1ccccn1 (stereo not shown) ? -63.3

Would you kindly share the measured hERG current change (%, negative = inhibition) at 10uM for "O=C(NC1CCCCCC1)C1CCN(S(=O)(=O)c2c(Cl)cccc2Cl)CC1" ? 11.6

Would you kindly share the measured hERG current change (%, negative = inhibition) at 10uM for "O=C1C2=C(SCCS2)C(=O)N1CCCO" ? 4.66

Would you kindly share the measured hERG current change (%, negative = inhibition) at 10uM for "Cl.c1coc(CNc2ncnc3ccccc23)c1" ? 2.88

Would you kindly share the measured hERG current change (%, negative = inhibition) at 10uM for "CN1C(=O)/C(=C/c2ccccc2OCc2cccc(F)c2)N(C)C1=S" ? 6.02

Would you kindly share the measured hERG current change (%, negative = inhibition) at 10uM for "CN1CCN(S(=O)(=O)c2cccc(C(=O)N(Cc3nnc(-c4ccc(Cl)cc4)o3)C3CC3)c2)CC1" ? -49.3

Would you kindly share the measured hERG current change (%, negative = inhibition) at 10uM for "O=C(CNC(=S)N(CCCN1CCOCC1)Cc1cccs1)N1CCCC1" ? 3.09

Would you kindly share the measured hERG current change (%, negative = inhibition) at 10uM for "CCOC(=O)CNC(=S)N(CCCN1CCCCCC1)Cc1cccs1" ? -65.8
